Reference source for all entries: patent US20250235566A1

Measured pIC50 (UniProt:Q6V1X1)
Sequence (Q6V1X1 whole entry, species assumed): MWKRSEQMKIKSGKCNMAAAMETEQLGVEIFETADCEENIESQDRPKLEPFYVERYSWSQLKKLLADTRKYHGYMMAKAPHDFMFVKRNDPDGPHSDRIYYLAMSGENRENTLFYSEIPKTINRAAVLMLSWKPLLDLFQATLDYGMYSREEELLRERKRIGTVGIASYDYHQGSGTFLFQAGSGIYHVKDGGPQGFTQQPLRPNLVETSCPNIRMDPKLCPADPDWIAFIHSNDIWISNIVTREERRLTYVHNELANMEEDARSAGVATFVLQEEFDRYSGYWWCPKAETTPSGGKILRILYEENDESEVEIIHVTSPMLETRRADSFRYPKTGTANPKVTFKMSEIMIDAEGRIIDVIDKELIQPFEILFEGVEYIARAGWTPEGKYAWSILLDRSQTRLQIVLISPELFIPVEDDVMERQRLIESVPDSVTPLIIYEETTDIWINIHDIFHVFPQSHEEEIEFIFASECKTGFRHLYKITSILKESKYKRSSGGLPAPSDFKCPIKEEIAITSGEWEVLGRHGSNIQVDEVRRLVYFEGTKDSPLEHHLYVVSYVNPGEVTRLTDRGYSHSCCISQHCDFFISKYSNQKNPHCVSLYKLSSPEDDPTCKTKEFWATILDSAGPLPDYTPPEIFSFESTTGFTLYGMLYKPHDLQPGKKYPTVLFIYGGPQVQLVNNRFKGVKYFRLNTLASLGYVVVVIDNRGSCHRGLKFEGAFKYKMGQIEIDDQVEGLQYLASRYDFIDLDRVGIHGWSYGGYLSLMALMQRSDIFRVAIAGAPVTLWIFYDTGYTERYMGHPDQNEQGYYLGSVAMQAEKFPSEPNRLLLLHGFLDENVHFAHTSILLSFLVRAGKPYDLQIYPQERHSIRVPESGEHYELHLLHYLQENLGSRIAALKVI
Give bare numbers, as −log10 of the molar value.

{"columns": ["compound", "pIC50"],
 "data": [
  ["CN(CC(=O)O)C1(CCCCC(=O)N[C@@H](CCC(=O)NCCCCOc2ccc3nccc(C(=O)NCC(=O)N4CC(F)(F)C[C@H]4C#N)c3c2)C(=O)NCCCCOc2ccc3nccc(C(=O)NCC(=O)N4CC(F)(F)C[C@H]4C#N)c3c2)CN(CC(=O)O)CCN(CC(=O)O)C1 [DATA^5m.Glu.(FAPi)2]", 5.65],
  ["N#C[C@@H]1CC(F)(F)CN1C(=O)CNC(=O)c1ccnc2ccc(OCCCCNC(=O)CC[C@H](NC(=O)CCC(C(=O)O)N3CCN(CC(=O)O)CCN(CC(=O)O)CCN(CC(=O)O)CC3)C(=O)NCCCCOc3ccc4nccc(C(=O)NCC(=O)N5CC(F)(F)C[C@H]5C#N)c4c3)cc12 (stereo partly shown) [DOTAGA.Glu.(FAPi)2]", 7.54]
]}

Next, consider the following compound.
## Task Please report pIC50 with UniProt:Q6V1X1 for item N#C[C@@H]1CC(F)(F)CN1C(=O)CNC(=O)c1ccnc2ccc(OCCCCNC(=O)CC[C@H](NC(=O)CN3CCN(CC(=O)O)CCN(CC(=O)O)CCN(CC(=O)O)CC3)C(=O)NCCCCOc3ccc4nccc(C(=O)NCC(=O)N5CC(F)(F)C[C@H]5C#N)c4c3)cc12 [DOTA.Glu.(FAPi)2] .
## Result 5.99
